From: paper PMC3547732

# PROTOCOL: Desolvation of solvates by DSC and TGA
# Format: physicochemical
# MEASUREMENT PARAMETERS: from DSC
MEASURED QUANTITY: Enthalpy of desolvation, ΔdesolvH from DSC (kcal/mol)

COMPOUND: CC(C)=O.CC(C)=O.CC(C)c1c(C(=O)Nc2ccccc2)c(-c2ccccc2)c(-c2ccc(F)cc2)n1CC[C@@H](O)C[C@@H](O)CC(=O)[O-].CC(C)c1c(C(=O)Nc2ccccc2)c(-c2ccccc2)c(-c2ccc(F)cc2)n1CC[C@@H](O)C[C@@H](O)CC(=O)[O-].CC(C)c1c(C(=O)Nc2ccccc2)c(-c2ccccc2)c(-c2ccc(F)cc2)n1CC[C@@H](O)C[C@@H](O)CC(=O)[O-].CC(C)c1c(C(=O)Nc2ccccc2)c(-c2ccccc2)c(-c2ccc(F)cc2)n1CC[C@@H](O)C[C@@H](O)CC(=O)[O-].CCO.[Ca+2].[Ca+2] [Solvate VI]
NUMERIC READOUT: 13.56
